# Protocol description: activity coefficient (dimensionless); of the first substance listed, at infinite dilution; xn = mol fraction of the nth substance listed
# Conditions used: 323 K; 101.33 kPa; Liquid; Chromatography; x1 = 0
This section presents molecules with their documented activity coefficient values.
Recorded metric: activity coefficient

>  <Molecule>
CCCCC [pentane] + C[n+]1ccn(CCO)c1.O=S(=O)([O-])C(F)(F)C(F)(F)C(F)(F)C(F)(F)F

>  <Numeric value>
5.46

$$$$
>  <Molecule>
CCCCCCCC [octane] + C[n+]1ccn(CCO)c1.O=S(=O)([O-])C(F)(F)C(F)(F)C(F)(F)C(F)(F)F

>  <Numeric value>
61.2

$$$$
>  <Molecule>
C=CCCCC [hex-1-ene] + C[n+]1ccn(CCO)c1.O=S(=O)([O-])C(F)(F)C(F)(F)C(F)(F)C(F)(F)F

>  <Numeric value>
9.71

$$$$
>  <Molecule>
Cc1cccc(C)c1 [1,3-dimethylbenzene] + C[n+]1ccn(CCO)c1.O=S(=O)([O-])C(F)(F)C(F)(F)C(F)(F)C(F)(F)F

>  <Numeric value>
9.86

$$$$
